- system: T1, histidine-tagged human Siglec-7 (NovoProtein) (human, UniProt Q9Y286 19-353)
- T1 construct: Bought protein; also called recombinant human Siglec-7; recombinant Siglec-7; not shown: histidine tag
- T1 sequence (Q9Y286 19-353 limits assumed): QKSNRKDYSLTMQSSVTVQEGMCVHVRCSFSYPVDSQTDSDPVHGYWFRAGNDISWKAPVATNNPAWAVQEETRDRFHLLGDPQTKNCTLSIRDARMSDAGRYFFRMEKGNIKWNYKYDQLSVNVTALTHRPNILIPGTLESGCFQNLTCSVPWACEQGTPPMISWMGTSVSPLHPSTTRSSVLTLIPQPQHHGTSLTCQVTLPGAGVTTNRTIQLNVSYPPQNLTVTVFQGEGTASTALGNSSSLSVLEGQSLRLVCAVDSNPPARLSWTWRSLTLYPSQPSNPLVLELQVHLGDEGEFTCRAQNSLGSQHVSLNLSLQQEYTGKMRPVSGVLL
- method: BLI, antibody captured
observation type: koff
The number alone won't do; follow it with the unit.

S7AB-H8.3 (antibody, V domains shown) VH: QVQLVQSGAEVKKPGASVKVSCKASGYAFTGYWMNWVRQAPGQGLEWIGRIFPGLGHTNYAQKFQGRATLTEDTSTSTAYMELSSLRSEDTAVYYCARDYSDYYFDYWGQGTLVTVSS VL: DIQMTQSPSSLSASVGDRVTITCRGSQDINTYLNWYQQKPGKAPKLLIYYTSRLHSGVPSRFSGSGSGTDYTLTISSLQPEDFATYYCQQGNLLPWTFGQGTKLEIK | 6.05e-05 s⁻¹

Below: the item to evaluate.
### Prompt Output measured koff for this item: S7AB-H8.31 (antibody, V domains shown) VH: QVQLVQSGAEVKKPGASVKVSCKASGYAFTETWMNWVRQAPGQGLEWIGRIFPGLGHTNYAQKFQGRATLTEDTSTSTAYMELSSLRSEDTAVYYCARDYSDYYFDYWGQGTLVTVSS VL: DIQMTQSPSSLSASVGDRVTITCRGSQDINTYLNWYQQKPGKAPKLLIYYTSRLHSGVPSRFSGSGSGTDYTLTISSLQPEDFATYYCQQGGTLPWTFGQGTKLEIK
### Response 0.000107 s⁻¹

Data origin, for the record: patent US20210246204A1
